Taken from patent US6440989B2.

# Experimental system: partially purified rat brain farnesyl protein transferase (FPT) (Rattus norvegicus, UniProt Q02293+Q04631)
# Construct: partially purified rat brain farnesyl protein transferase (FPT)
# Assay: In vitro enzyme assay: inhibition of Ras-CVLS farnesylation by farnesyl protein transferase
pIC50: −log10 of the molar value.
Classification field: enter Condition met for pIC50 values not below 7, Condition not met for values below it.

Quick check: does COc1ccc2c(c1)CCc1cc(Br)cnc1C2N1CCN(C(=O)Cc2cc[n+]([O-])cc2)CC1 (racemic) have pIC50 greater than or equal to 7?
Condition not met

Kindly determine if pIC50 recorded for COc1cc(C)cc2c1C(=C1CCN(C(=O)Cc3cc[n+]([O-])cc3)CC1)c1ncc(Br)cc1CC2 is above or exactly 7.
Condition met

Check this compound for pIC50 at or above 7: COc1cc(C)cc2c1C(N1CCN(C(=O)Cc3cc[n+]([O-])cc3)CC1)c1ncc(Br)cc1CC2 (single isomer, unassigned; (+)) [Example 20]
Condition not met

Could you tell me if the measured pIC50 of COc1cc(C)c2c(c1)CCc1cc(Br)cnc1C2N1CCN(C(=O)Cc2cc[n+]([O-])cc2)CC1 (racemic) reaches 7 or more?
Condition met
